Reported AUC values for a set of molecules
assay: AUC in rat at 2 mg/kg, iv and 5 mg/kg, po; assay type: ADME, organism-based; conditions: plasma
# number only, unit µM·h dropped from output

SUBSTANCE SMILES | UNITS SYMBOL | AUC
N#Cc1cnccc1COc1cnc(N2CCN(C(=O)OCC(F)(F)F)CC2)nc1 | µM·h | 4

So for N#Cc1cnccc1COc1cnc(N2CC3CCC(C2)N3C(=O)OCC(F)(F)F)nc1 , the logged AUC turned out to be 2.1

So for C[C@@H]1CN(C(=O)OCC(F)(F)F)CCN1c1ncc(OCc2ccncc2C#N)cn1 , the logged AUC turned out to be 3.2
